# Tested on: A498 renal
# experimental_protocol: NCI-60 one-dose screen, 48 h
# conditions: 10 µM unless noted
The panel holds about 83,000 compounds, 20% with a hit somewhere; the sample as a whole holds those more often. Active and inactive are the calls of the source. Rule for the calls: active = growth percent below 10; inactive = the rest.
Hi there, use one of these labels in your reply, thanks! label 1 for active, label 0 for inactive

Would you please look over these solved cases?
[
  {
    "molecule": "CCN1CCN(c2nc(C)cc(NCc3cc(Nc4ccnc5cc(Cl)ccc45)ccc3F)n2)CC1",
    "class": "label 0"
  },
  {
    "molecule": "N#Cc1c(N)nc(NCCO)nc1-c1ccc(F)cc1",
    "class": "label 0"
  }
]

Test call for this molecule, please: COc1ccc2occ(C3=C(c4c[nH]c5ccccc45)C(=O)N(O)C3=O)c2c1
label 0

Assay outcome for COc1ccc2c(c1)O/C(=C\c1cccc(OCC(=O)Nc3nc4ccccc4s3)c1)C2=O : what was it?
label 0

Returns: the outcome recorded for CCN1C(=O)N(CC)C2Nn3c(s/c(=C\c4ccc(Cl)cc4Cl)c3=O)=NC21 (stereo not given) in this assay.
label 0

Could you please tell me the result logged for C[n+]1cc2cc(C(N)=O)[nH]c3c(=N)c(Cl)c(N)c1c23 in this assay?
label 0

====

Reported growth values for a set of compounds
# Test system: CAKI-1 renal
# experimental_protocol: NCI-60 one-dose screen, 48 h (100 = growth as untreated, 0 = no growth, -100 = all killed)
# conditions: 10 µM unless noted
This is part of a sample that, as a whole, favours compounds with a hit. Of some 83,000 tested, about 20% had one in any assay. The source made the active and inactive calls. Rule for the calls: active = growth percent below 10; inactive = the rest.

[
  {
    "compound": "COc1ccc(-c2nc3c(c(=O)n2C(C)=O)C(c2ccc(Cl)cc2)c2sc4c(Cl)cccc4c2O3)cc1 (configuration not stated)",
    "observed_property": "growth",
    "result": "-6.4% (active)"
  }
]

Using the record for COc1ccc(C2=Nc3c(N)ncnc3NC(c3ccc4c(c3)OCO4)C2)cc1 (configuration not stated) , report its growth.
90% (inactive)

Can you share its growth? I mean this compound: O=c1cc(-c2ccc(Cl)cc2)[nH]c2ccccc12
73.7% (inactive)

Field request: growth | item: COc1ccc(-c2nc(SC(C)C)nc(NNC(N)=S)c2C#N)cc1
42.3% (inactive)

====

# Test system: SF-295 CNS
# experimental_protocol: NCI-60 one-dose screen, 48 h
# conditions: 10 µM unless noted
About 83,000 compounds went through this panel and 20% of them were active in at least one assay; those are over-represented in the sample as a whole. Calls of active or inactive are those of the source. How the source made its calls: active means growth percent below 10; inactive means the rest.
Reply using exactly one outcome from active, inactive

A selection of reference data follows.
[
  {
    "compound": "NC(=N\\N=C/c1cccc([N+](=O)[O-])c1)/C(N)=N\\N=C/c1cccc([N+](=O)[O-])c1",
    "class": "inactive"
  },
  {
    "compound": "Cc1occc1-c1n[nH]c(=S)n1N1C(=O)CSC1=S",
    "class": "inactive"
  },
  {
    "compound": "CN1CCN(C(=O)c2c3c(n4ccccc24)C(=O)c2ncccc2C3=O)CC1",
    "class": "inactive"
  },
  {
    "compound": "COc1cccc(-c2nn(-c3ccccc3)cc2-c2ccnc(NCCCNC(=O)Nc3ccc(Cl)c(Cl)c3)c2)c1",
    "class": "active"
  },
  {
    "compound": "Cc1nn(-c2ccccc2)c2nc3c(c(-c4ccc(Cl)cc4)c12)CNC1(CCSCC1)N3",
    "class": "inactive"
  },
  {
    "compound": "CCOC(=O)c1c(-c2ccc(Cl)cc2)c(C#N)c(=O)n(-c2ccccc2CC)c1N",
    "class": "inactive"
  },
  {
    "compound": "Cc1cccc(-c2nc(N(C)c3ccc4ncsc4c3)c3ccccc3n2)n1",
    "class": "inactive"
  },
  {
    "compound": "COc1cc(C(=O)c2cc(C)c3[nH]c4ccc(Cl)cc4c3c2C)cc(OC)c1OC",
    "class": "active"
  },
  {
    "compound": "N/C(=N\\c1nc2ccccc2s1)NC(=O)Nc1cccc(Cl)c1",
    "class": "inactive"
  },
  {
    "compound": "CN(C)CCNc1nc2ccccc2c2c1c1c(n2Cc2ccccc2)-c2ccccc2C1=O",
    "class": "active"
  }
]

Outcome? CCc1c2c(nc3ccc(OC(=O)OCc4ccc(B5OC(C)(C)C(C)(C)O5)cc4)cc13)-c1cc3c(c(=O)n1C2)COC(=O)[C@]3(O)CC
active

Which result was noted for this compound in the test: O=C(Nc1ccc(Cl)cc1)Nc1ccc(Cl)c(C(F)(F)F)c1
active

Assay result, entry N#CCN1C(=O)C2C3=C(CCCC3)SC2N=C1CN1CCCC1 (centres undefined) — outcome?
inactive

Record request — test call for CC(C)(C)n1cc(-c2ccnc(NCCCNS(=O)(=O)c3ccccc3)c2)c(-c2ccccc2)n1
inactive
